measurement_target: T1R1/T1R3 receptor (Felis catus, UniProt E3UMS2)
test_details: Activation of T1R1/T1R3 receptor by transmembrane compounds alone or with alanine, IMP, GMP, phenylalanine; HEK293 cells, calcium fluorescence (Example 5)
Type: cell-based, cat
particulars: +IMP (0.2 mM)
measurement_label: Max resp ΔF/F +IMP (0.2 mM)

Query: Consider the molecule COc1ccc(C(=O)NC(C)c2ccccc2)cc1C (stereo not shown) and give its recorded Max resp ΔF/F +IMP (0.2 mM).
Result: 1.1775 ΔF/F

Query: Read off the recorded Max resp ΔF/F +IMP (0.2 mM) for CCC(CC)NC(=O)c1ccc2c(c1)OCCO2
Result: 0.8725 ΔF/F

Query: Answer with the recorded Max resp ΔF/F +IMP (0.2 mM) of O=C(CN1C(=O)C(=O)N(Cc2ccccc2)C1=O)c1ccccc1 only.
Result: 1.140 ΔF/F

Query: Identify the reported Max resp ΔF/F +IMP (0.2 mM) for the following entry. CCC(CC)NC(=O)c1ccc(Br)o1
Result: 1.8425 ΔF/F

Query: Return value of Max resp ΔF/F +IMP (0.2 mM) for input CCCC(C)NC(=O)c1ccc(OC)c(C)c1 (stereo not shown) , no commentary.
Result: 1.5875 ΔF/F

Query: Consider the molecule CCCC(CCC)C(=O)Nc1ccc2c(c1)OCO2 and give its recorded Max resp ΔF/F +IMP (0.2 mM).
Result: 0.908 ΔF/F

Query: Specify Max resp ΔF/F +IMP (0.2 mM) for CCC(CC)NC(=O)c1ccc(OC)c(OC)c1 [3,4-dimethoxy-N-(pentan-3-yl)benzamide] and stop.
Result: 0.9975 ΔF/F

Query: // fetch Max resp ΔF/F +IMP (0.2 mM) given entry CCCC(C)NC(=O)/C=C/c1ccc(OC)c(OC)c1 (stereo not shown)
Result: 1.07 ΔF/F

Query: Supply reported Max resp ΔF/F +IMP (0.2 mM) belonging to this molecule: COc1ccc(/C=C/C(=O)NC2CCCCC2C)cc1 (stereo not shown)
Result: 1.7725 ΔF/F

Query: Given CC1CCCC(NC(=O)c2ccc3c(c2)OCO3)C1C (stereo not shown) , respond with its Max resp ΔF/F +IMP (0.2 mM).
Result: 1.175 ΔF/F

Query: For the molecule COC(=O)C(NC(=O)/C=C/c1cccs1)C(C)C (stereo not shown) , give its measured Max resp ΔF/F +IMP (0.2 mM) value.
Result: 0.7375 ΔF/F

Query: Determine from records and report Max resp ΔF/F +IMP (0.2 mM) for CCC(CC)NC(=O)/C=C/c1ccc(OC)cc1
Result: 1.443 ΔF/F

Query: Indicate the recorded Max resp ΔF/F +IMP (0.2 mM) value for this molecule: O=C(NCCc1ccccc1)C(=O)NCc1cccnc1
Result: 0.7625 ΔF/F

---

Can you tell me +Alanine (20 mM) Max resp ΔF/F for the items I'm about to list?
measurement_target: T1R1/T1R3 receptor (Felis catus)
test_details: Activation of T1R1/T1R3 receptor by transmembrane compounds alone or with alanine, IMP, GMP, phenylalanine; HEK293 cells, calcium fluorescence (Example 5)
Type: cell-based, cat
particulars: +Alanine (20 mM)

Query: Dear colleague, please send me the reported +Alanine (20 mM) Max resp ΔF/F for CCC(CC)NC(=O)c1ccc2c(c1)OCCO2 when you can.
Result: 0.3125 ΔF/F

Query: Tell us which +Alanine (20 mM) Max resp ΔF/F value is on record for O=C(CN1C(=O)C(=O)N(Cc2ccccc2)C1=O)c1ccccc1
Result: 1.3 ΔF/F

Query: # return recorded +Alanine (20 mM) Max resp ΔF/F for input O=C(Nc1ccccc1Br)N[C@@H]1c2ccccc2C[C@@H]1O (stereo in doubt)
Result: 0.3 ΔF/F

Query: Respond only with +Alanine (20 mM) Max resp ΔF/F recorded for CCCC(C)NC(=O)c1ccc(OC)c(C)c1 (stereo not drawn)
Result: 1.5650 ΔF/F

Query: Answer with reported +Alanine (20 mM) Max resp ΔF/F of CCC(CC)NC(=O)/C=C/c1ccc(OC)cc1
Result: 0.7 ΔF/F

Query: Hello, please tell me recorded +Alanine (20 mM) Max resp ΔF/F for this one: CCC(CC)NC(=O)c1ccc(Br)o1
Result: 1.575 ΔF/F

Query: Query +Alanine (20 mM) Max resp ΔF/F for COC(=O)C(NC(=O)/C=C/c1cccs1)C(C)C (stereo not drawn)
Result: 0.1175 ΔF/F

Query: Supply recorded +Alanine (20 mM) Max resp ΔF/F for CCC(CC)NC(=O)c1ccc(OC)c(OC)c1 [3,4-dimethoxy-N-(pentan-3-yl)benzamide] here.
Result: 0.545 ΔF/F

Query: Identify measured +Alanine (20 mM) Max resp ΔF/F associated with CCOC(=O)C(NC(=O)c1ccc2c(c1)OCO2)C(C)C (stereo not drawn)
Result: 0.3175 ΔF/F

---

measurement_target: cat T1R1/T1R3 receptor (Felis catus, UniProt E3UMS2)
test_details: cell-based
Type: cell-based
Where a name gives a salt, the structure may show the parent alone.
I'd be grateful if you could share measured Max resp. (ΔF/F) for these entries.

Query: Given O=P(O)(O)OP(=O)(O)OP(=O)(O)OC[C@H]1O[C@@H](n2cnc3c(Cl)ncnc32)[C@H](O)[C@@H]1O , respond with its Max resp. (ΔF/F).
Result: 0.345 ΔF/F

Query: In one line, give reported Max resp. (ΔF/F) of the entry O=c1[nH]c(=O)c2ncn([C@@H]3O[C@H](COP(=O)(O)O)[C@@H](O)[C@H]3O)c2[nH]1 [Disodium Salt] .
Result: 1.6223 ΔF/F

Query: Entry Nc1nc2c(ncn2[C@@H]2O[C@H](COP(=O)(O)OP(=O)(O)O)[C@@H](O)[C@H]2O)c(=S)[nH]1 [6-Thioguanosine-5′-O-diphosphate] needs its Max resp. (ΔF/F) filled in; supply it.
Result: 1.047 ΔF/F

Query: // fetch Max resp. (ΔF/F) given entry Nc1nc2c(ncn2[C@@H]2O[C@H](COP(=O)(O)OP(=O)(O)OP(=O)(O)O)[C@@H](O)[C@H]2O)c(=O)[nH]1 [Guanosine 5′-triphosphate]
Result: 1.8075 ΔF/F

Query: // Input: CNc1ccccc1C(=O)O[C@H]1C[C@H](n2cnc3c(N)ncnc32)O[C@@H]1COP(=O)(O)O . Output its Max resp. (ΔF/F) only.
Result: 0.3975 ΔF/F

---

For each of the molecules below, state its Threshold.
measurement_target: cat T1R1/T1R3 receptor (Felis catus, UniProt E3UMS2)
test_details: cell-based
Format: cell-based
Where a name gives a salt, the structure may show the parent alone.
Note: state the figure and append the unit.

Query: Could you please provide reported Threshold for O=P(O)(O)OC[C@H]1O[C@@H](n2cnc3c2ncn2ccnc32)C[C@@H]1O ? Thanks!
Result: 0.05 mM

Query: Give reported Threshold value for Nc1nc2c(ncn2[C@@H]2O[C@H](COP(=O)(O)OP(=O)(O)O)[C@@H](O)[C@H]2O)c(=O)[nH]1 [Guanosine 5′-diphosphate sodium salt, Guanosine 5′-diphosphate]
Result: 0.050 mM

Query: Let me know recorded Threshold for Nc1ncnc2c1ncn2[C@H]1CC(OP(=O)(O)O)[C@@H](COP(=O)(O)O)O1 (stereo in doubt) [2′-Deoxyadenosine-3′,5′-O-bisphosphate, 2′-deoxyadenosine-3′, 5′-O-bisphosphate] , thanks.
Result: 0.005 mM

---

Kindly state Threshold for each of the entries shown.
measurement_target: cat T1R1/T1R3 receptor (Felis catus)
test_details: cell-based
Format: cell-based
Counter-ions that a name gives are not always drawn.
Answer with a number only, understood to be in mM.

Query: Give me measured Threshold, please, for this compound: O=c1[nH]c(=O)c2ncn([C@@H]3O[C@H](COP(=O)(O)O)[C@@H](O)[C@H]3O)c2[nH]1 [Disodium Salt]
Result: 0.025

Query: Answer with reported Threshold of CNc1ccccc1C(=O)OC1C[C@H](n2cnc3c(=O)[nH]c(N)nc32)O[C@@H]1COP(=O)(O)O (stereo in doubt)
Result: 0.0025

Query: Consider the compound O=P(O)(O)OC[C@H]1O[C@@H](n2cnc3c(Cl)ncnc32)C(O)C1O (stereo partly shown) and give its recorded Threshold.
Result: 0.0005

Query: Give reported Threshold value for CC(=O)Nc1nc2c(ncn2[C@@H]2O[C@H](COP(=O)(O)O)[C@@H](O)[C@H]2O)c(=O)[nH]1
Result: 0.025

Query: For the compound Nc1ncnc2c1ncn2C1OC(COP(=O)(O)OS(=O)(=O)O)C(O)C1O (stereo not shown) [Adenosine 5′-phosphosulfate sodium salt, Adenosine 5′-phosphosulfate] , give its reported Threshold.
Result: 0.008

Query: Specify measured Threshold for O=c1[nH]cnc2c1ncn2C1CC(O)C(COP(O)(O)=S)O1 (stereo not shown) .
Result: 0.025

Query: Answer with the recorded Threshold for the compound listed here: Nc1nc2c(ncn2[C@H]2O[C@@H](COP(=O)(O)O)[C@H](O)[C@@H]2O)c(=O)[nH]1 (stereo in doubt) [Guanosine monophosphate disodium salt, reference compound]
Result: 0.008

Values from patent US11185100B2
